For each entry below, report its recombinant UMI read abundance (log10) value.
# ASSAY METHOD TEXT: recombinant UMI read abundance after kanamycin selection (control-corrected) (log10(CPM+1)); higher = more efficient recombination; extreme values may be limits of the assay; sequences stand for … in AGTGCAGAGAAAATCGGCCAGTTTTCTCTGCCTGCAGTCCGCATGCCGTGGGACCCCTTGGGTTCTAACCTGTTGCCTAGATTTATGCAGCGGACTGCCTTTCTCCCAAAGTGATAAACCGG…AGGTTGGTTTCACT; site = the 11-nt donor;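 note: IS621 bridge recombinase in Escherichia coli cells against a fixed T5 target plasmid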
Lab note: record just the number, no unit beside it.

[in] I would be grateful if you could share the reported recombinant UMI read abundance (log10) for GCTAGAACATGGACCGGTTTTCCCGGTAATCCGTATTTGGC (site GTTAGAACTGC) .
[out] 0

[in] I would be grateful if you could share the reported recombinant UMI read abundance (log10) for TTACTACCATGGACCGGTTTTCCCGGTAATCCGTATTTGCG (site TTACTACCTCG) .
[out] 0.0128

[in] I would be grateful if you could share the reported recombinant UMI read abundance (log10) for GATTTCGCATGGACCGGTTTTCCCGGTAATCCGTATTTGTC (site GATTTCGCTGA) .
[out] 1.51

[in] I would be grateful if you could share the reported recombinant UMI read abundance (log10) for CGGACTGCATGGACCGGTTTTCCCGGTAATCCGTATTTGTT (site CGGAATCCTAA) .
[out] 0

[in] I would be grateful if you could share the reported recombinant UMI read abundance (log10) for CGGCATCCATGGACCGGTTTTCCCGGTAATCCGTATTTGTT (site CGGAATCCTAA) .
[out] 0

[in] I would be grateful if you could share the reported recombinant UMI read abundance (log10) for CGAGTGGCATGGACCGGTTTTCCCGGTAATCCGTATTTGAG (site CGAGTGGCTCT) .
[out] 1.85

[in] I would be grateful if you could share the reported recombinant UMI read abundance (log10) for TTGCTGGCATGGACCGGTTTTCCCGGTAATCCGTATTTGAG (site TTGCTGGCTCT) .
[out] 0

[in] I would be grateful if you could share the reported recombinant UMI read abundance (log10) for CGGTAGCCATGGACCGGTTTTCCCGGTAATCCGTATTTGTT (site CGGTAGCCTAA) .
[out] 0.237

[in] I would be grateful if you could share the reported recombinant UMI read abundance (log10) for GGTCCAACATGGACCGGTTTTCCCGGTAATCCGTATTTGGA (site GGTCCAACTTT) .
[out] 0.00506

[in] I would be grateful if you could share the reported recombinant UMI read abundance (log10) for GCCAAAACATGGACCGGTTTTCCCGGTAATCCGTATTTGCT (site GCCAAAACTAG) .
[out] 1

[in] I would be grateful if you could share the reported recombinant UMI read abundance (log10) for GTCCAAGCATGGACCGGTTTTCCCGGTAATCCGTATTTGAG (site TTCCAAGCTCT) .
[out] 0.088

[in] I would be grateful if you could share the reported recombinant UMI read abundance (log10) for TCCCGGACATGGACCGGTTTTCCCGGTAATCCGTATTTGTC (site TCCCGGACTGA) .
[out] 0.905

[in] I would be grateful if you could share the reported recombinant UMI read abundance (log10) for CTTCTAACATGGACCGGTTTTCCCGGTAATCCGTATTTGGA (site CTCCTAACTTC) .
[out] 0.00424

[in] I would be grateful if you could share the reported recombinant UMI read abundance (log10) for ATTGTAACATGGACCGGTTTTCCCGGTAATCCGTATTTGCT (site ATTGTAACTAG) .
[out] 2.15

[in] I would be grateful if you could share the reported recombinant UMI read abundance (log10) for CTGCGCTCATGGACCGGTTTTCCCGGTAATCCGTATTTGCG (site CTGCGCTCTCG) .
[out] 1.11

[in] I would be grateful if you could share the reported recombinant UMI read abundance (log10) for TGGGGACCATGGACCGGTTTTCCCGGTAATCCGTATTTGCG (site TGGGGACCTCG) .
[out] 0.00873

[in] I would be grateful if you could share the reported recombinant UMI read abundance (log10) for GCTACGCCATGGACCGGTTTTCCCGGTAATCCGTATTTGTA (site GCTACGCCTTA) .
[out] 0.343

[in] I would be grateful if you could share the reported recombinant UMI read abundance (log10) for TGGACTACATGGACCGGTTTTCCCGGTAATCCGTATTTGAC (site TGGACTACTGT) .
[out] 1.55

Source: the supplement of paper PMC11208160
